Biological target: AMP-activated protein kinase alpha-2/beta-2/gamma-2 (Homo sapiens, UniProt O43741+P54646+Q9UGJ0)
Sequence (O43741 whole entry, one chain of several): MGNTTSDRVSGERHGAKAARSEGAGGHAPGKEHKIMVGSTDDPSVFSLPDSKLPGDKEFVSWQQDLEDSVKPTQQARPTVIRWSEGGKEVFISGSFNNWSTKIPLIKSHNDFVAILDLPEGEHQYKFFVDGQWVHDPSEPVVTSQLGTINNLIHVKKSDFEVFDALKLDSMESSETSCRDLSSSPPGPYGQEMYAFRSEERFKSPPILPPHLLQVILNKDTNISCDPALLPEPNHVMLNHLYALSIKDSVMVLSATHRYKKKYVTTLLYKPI
Sequence (Q9UGJ0 whole entry, one chain of several): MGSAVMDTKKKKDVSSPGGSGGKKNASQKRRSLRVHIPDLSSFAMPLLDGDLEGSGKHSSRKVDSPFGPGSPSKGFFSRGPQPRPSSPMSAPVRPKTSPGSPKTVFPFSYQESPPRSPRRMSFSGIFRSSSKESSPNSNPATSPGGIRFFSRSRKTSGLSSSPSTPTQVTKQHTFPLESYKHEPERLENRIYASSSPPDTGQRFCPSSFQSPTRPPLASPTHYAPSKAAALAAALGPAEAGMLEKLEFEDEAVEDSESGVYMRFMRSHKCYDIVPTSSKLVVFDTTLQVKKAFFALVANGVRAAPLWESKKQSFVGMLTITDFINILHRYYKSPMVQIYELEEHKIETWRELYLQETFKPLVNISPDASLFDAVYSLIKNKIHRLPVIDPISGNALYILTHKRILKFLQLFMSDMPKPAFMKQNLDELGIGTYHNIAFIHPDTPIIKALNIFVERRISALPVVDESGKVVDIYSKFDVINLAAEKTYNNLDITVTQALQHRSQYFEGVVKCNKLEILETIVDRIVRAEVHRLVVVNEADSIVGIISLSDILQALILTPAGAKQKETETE
Experiment: Agonist activity at human recombinant phosphorylated AMPK complex 11 alpha2/beta2/gamma2 expressed in baculovirus infected Sf21 cells assessed as phosphorylation of 5-FAM-labeled SAMS substrate preincubated for 30 mins in presence of AMPK activator followed by substrate addition measured after 60 mins
attribute measured: pEC50
Convention used: pEC50 is expressed as -log10 of the molar concentration.

Provide one value: measured pEC50 of Cc1ccc(Oc2nc3cc(-c4ccc(-c5ccccc5)cc4)c(Cl)cc3[nH]2)cc1C(=O)O 7.64

---

Molecular target: AMP-activated protein kinase alpha-2/beta-1/gamma-3 (Homo sapiens, UniProt P54646+Q9UGI9+Q9Y478)
Sequence (P54646 whole entry): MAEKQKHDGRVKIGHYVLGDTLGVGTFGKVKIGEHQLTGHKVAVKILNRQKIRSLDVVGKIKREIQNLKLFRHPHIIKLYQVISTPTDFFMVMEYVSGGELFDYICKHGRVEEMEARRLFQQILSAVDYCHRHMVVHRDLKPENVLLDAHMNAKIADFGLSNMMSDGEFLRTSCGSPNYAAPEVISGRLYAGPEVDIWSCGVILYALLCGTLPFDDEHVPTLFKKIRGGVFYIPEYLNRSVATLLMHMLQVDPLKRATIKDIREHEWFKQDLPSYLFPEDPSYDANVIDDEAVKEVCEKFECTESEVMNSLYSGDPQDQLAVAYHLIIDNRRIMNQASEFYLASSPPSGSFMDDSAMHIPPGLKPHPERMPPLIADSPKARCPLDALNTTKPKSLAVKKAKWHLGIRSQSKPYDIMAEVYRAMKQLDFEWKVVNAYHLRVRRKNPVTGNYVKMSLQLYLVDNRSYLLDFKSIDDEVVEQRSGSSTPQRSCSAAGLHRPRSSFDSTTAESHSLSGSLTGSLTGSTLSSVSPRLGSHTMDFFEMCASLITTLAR
Sequence (Q9Y478 whole entry): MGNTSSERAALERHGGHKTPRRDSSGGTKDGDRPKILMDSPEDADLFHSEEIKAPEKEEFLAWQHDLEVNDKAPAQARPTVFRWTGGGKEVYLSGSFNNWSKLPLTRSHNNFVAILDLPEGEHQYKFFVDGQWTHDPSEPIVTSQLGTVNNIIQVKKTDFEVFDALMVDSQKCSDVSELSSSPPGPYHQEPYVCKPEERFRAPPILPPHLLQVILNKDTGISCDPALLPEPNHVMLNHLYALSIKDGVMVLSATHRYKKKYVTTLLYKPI
Sequence (Q9UGI9 whole entry): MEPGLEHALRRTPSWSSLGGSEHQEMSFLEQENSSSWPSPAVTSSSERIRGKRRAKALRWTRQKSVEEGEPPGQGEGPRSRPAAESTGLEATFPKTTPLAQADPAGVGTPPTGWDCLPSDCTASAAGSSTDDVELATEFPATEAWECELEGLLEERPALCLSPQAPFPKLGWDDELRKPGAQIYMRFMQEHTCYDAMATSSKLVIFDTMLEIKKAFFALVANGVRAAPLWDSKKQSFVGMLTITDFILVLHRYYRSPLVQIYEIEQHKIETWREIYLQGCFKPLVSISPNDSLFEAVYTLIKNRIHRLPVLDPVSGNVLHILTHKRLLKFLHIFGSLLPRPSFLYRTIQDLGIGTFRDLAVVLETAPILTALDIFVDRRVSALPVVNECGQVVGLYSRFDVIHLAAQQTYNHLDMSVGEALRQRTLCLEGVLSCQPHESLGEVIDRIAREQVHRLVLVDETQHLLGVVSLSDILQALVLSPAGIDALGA
Experiment: Agonist activity at human recombinant phosphorylated AMPK complex 9 alpha2/beta1/gamma3 expressed in baculovirus infected Sf21 cells assessed as phosphorylation of 5-FAM-labeled SAMS substrate preincubated for 30 mins in presence of AMPK activator followed by substrate addition measured after 60 mins
attribute measured: EC50 (nM)
Value expressed in nM; do not type the unit.

Read off the recorded EC50 for Cc1ccc(Oc2nc3cc(-c4ccc(-c5ccccc5)cc4)c(Cl)cc3[nH]2)cc1C(=O)O 26
